EXPERIMENTAL READOUT: melting point (°C)

## Input melting point lookup needed for CN(C)[C@@H]1CN2C(=O)N(c3cc(Cl)cc(Cl)c3)C(=O)[C@@]2(Cc2ccc(Br)cc2)C1 , thanks.
## Output 54

## Input Another molecule: O=C1N(c2cc(C(F)(F)F)cc(C(F)(F)F)c2)C(=O)C2(Cc3ccc(Br)cc3)CCCN12 (stereo not shown)
## Output 138

[A] NC(=O)C(N)CC(=O)N[C@@H]1CN2C(=O)N(c3cc(Cl)nc(Cl)c3)C(=O)[C@@]2(Cc2ccc(OC(F)(F)F)cc2)C1 (stereo partly shown)
[B] CN(C)CCCC(=O)N[C@@H]1CN2C(=O)N(c3cc(Cl)cc(Cl)c3)C(=O)[C@@]2(Cc2ccc(OC(F)(F)F)cc2)C1
## Input Choose between A and B : whose measured melting point value is numerically larger? Record your answer as the label of the chosen record.
## Output A
(A: 107.8 °C, B: 57.9 °C)

###

EXPERIMENTAL READOUT: melting point (°C)

## Input melting point lookup needed for O=C(O)CC1=CC2(Cc3ccc(Br)cc3)C(=O)N(c3cc(Cl)cc(Cl)c3)C(=O)N2C1 (centres unmarked) , thanks.
## Output 101.5

## Input Another compound: O=C1CCCN1c1cccc(-c2ccc(CC34CCCN3C(=O)N(c3cc(Cl)cc(Cl)c3)C4=O)cc2)c1 (centres unmarked)
## Output 86.5

[1] CC(=O)N[C@@H]1CN2C(=O)N(c3cc(Cl)cc(Cl)c3)C(=O)[C@@]2(Cc2ccc(Br)cc2)C1
[2] CC1(C)COC(c2ccc(CC34CCCCN3C(=O)N(c3cc(Cl)cc(Cl)c3)C4=O)cc2)=N1 (centres unmarked)
## Input Choose between 1 and 2 : whose measured melting point value is numerically larger? Record your answer as the label of the chosen record.
## Output 1

###

EXPERIMENTAL READOUT: melting point (°C)

[A] COC(=O)/C=C/c1cccc(-c2ccc(CC34CCCN3C(=O)N(c3cc(Cl)cc(Cl)c3)C4=O)cc2)c1 (stereo not drawn)
[B] O=C1N(c2cc(Cl)cc(Cl)c2)C(=O)C2(Cc3ccc(Br)cc3)CC(F)(F)CN12 (stereo not drawn)
## Input Sorting ascending by melting point, which comes first: A or B ? Record your answer as the label of the chosen record.
## Output A

[1] N[C@@H]1CN2C(=O)N(c3cc(Cl)cc(Cl)c3)C(=O)[C@@]2(Cc2ccc(OC(F)(F)F)cc2)C1
[2] C[S+]([O-])c1ccc(CC23CCCN2C(=O)N(c2cc(Cl)cc(Cl)c2)C3=O)cc1 (stereo not drawn)
## Input Sorting ascending by melting point, which comes first: 1 or 2 ? Record your answer as the label of the chosen record.
## Output 1

[a] N#Cc1cccc(N2C(=O)N3CCCC3(Cc3ccc(Br)cc3)C2=O)c1 (stereo not drawn)
[b] CC(=O)Nc1ccc(-c2ccc(CC34CCCN3C(=O)N(c3cc(Cl)cc(Cl)c3)C4=O)cc2)cc1 (stereo not drawn)
## Input Choose between a and b : whose measured melting point value is numerically larger? Record your answer as the label of the chosen record.
## Output a

###

EXPERIMENTAL READOUT: melting point (°C)

Solved cases (2 shown):
## Input melting point lookup needed for [N-]=[N+]=N[C@@H]1CN2C(=O)N(c3cc(Cl)cc(Cl)c3)C(=O)[C@]2(Cc2ccc(Br)cc2)C1 , thanks.
## Output 58.9

## Input Another compound: N#Cc1ccc(CC23CCCN2C(=O)N(c2cc(Cl)c(N)c(Cl)c2)C3=O)cc1 (stereo not shown)
## Output 103

[P] CS(=O)(=O)N1CCN2C(=O)N(c3cc(Cl)cc(Cl)c3)C(=O)C2(Cc2ccc(Br)cc2)C1 (stereo not shown)
[Q] COC(=O)c1ccc(CC23CCCN2C(=O)N(c2cc(Cl)c(O)c(Cl)c2)C3=O)cc1 (stereo not shown)
[R] CC(=O)NC(CC(=O)N[C@@H]1CN2C(=O)N(c3cc(Cl)nc(Cl)c3)C(=O)[C@@]2(Cc2ccc(OC(F)(F)F)cc2)C1)C(N)=O (stereo partly shown)
## Input Given 3 compounds, produce a descending ranking by melting point. Please write the labels in the order that was asked for.
## Output P, R, Q
(P: 229 °C, R: 152.8 °C, Q: 105.3 °C)
